Tested on: CCRIS mutagenicity, Ames/micronucleus/aberration tests
Assay: CCRIS mutagenicity studies
Conditions: Test System: AMES SALMONELLA TYPHIMURIUM; Strain/Indicator: TA1537; Metabolic Activation: S-9; Method: STANDARD PLATE
The source made the active and inactive calls. How the calls were made is not given here.
measurement.type: mutagenic call

{"compound": "COC(=O)c1cc(OC)c2c(c1-c1c(C(=O)OC)cc(OC)c3c1OCO3)OCO2", "measurement.type": "mutagenic call", "measured.result": "inactive; negative"}
{"compound": "C1CSCCS1", "measurement.type": "mutagenic call", "measured.result": "inactive; negative"}
{"compound": "Nc1ccn([C@@H]2O[C@H](CO)[C@@H](O)C2O)c(=O)n1 (stereo partly specified)", "measurement.type": "mutagenic call", "measured.result": "inactive; negative"}
{"compound": "C[n+]1ccn(COCCC(C)(C)[N+](=O)[O-])c1/C=N/O", "measurement.type": "mutagenic call", "measured.result": "inactive; negative"}
{"compound": "CCN(CC)CCNc1ccc2ncn3c4ccc(O)cc4c(=O)c1c23", "measurement.type": "mutagenic call", "measured.result": "active; positive"}
{"compound": "COc1cc(O)c2c(c1)Cc1cc(C)cc(O)c1C2=O", "measurement.type": "mutagenic call", "measured.result": "active; positive"}

* * *

System: CCRIS mutagenicity, Ames/micronucleus/aberration tests
Assay: CCRIS mutagenicity studies
Details: Test System: AMES SALMONELLA TYPHIMURIUM; Strain/Indicator: TA100; Metabolic Activation: RAT, LIVER, S-9; Method: PREINCUBATION
Active and inactive are the calls of the source. How the calls were made is not given here.
Possible outcomes: active, inactive

{"compound": "CCCN(CCC)N=O", "experimental.target": "CCRIS mutagenicity, Ames/micronucleus/aberration tests", "assigned.category": "inactive"}
{"compound": "CC(C)(C)c1cc(/C=C/c2cc(C(C)(C)C)c(O)c(C(C)(C)C)c2)cc(C(C)(C)C)c1O", "experimental.target": "CCRIS mutagenicity, Ames/micronucleus/aberration tests", "assigned.category": "inactive"}
{"compound": "Cc1cc(N=Nc2ccccc2)c(N)cc1N", "experimental.target": "CCRIS mutagenicity, Ames/micronucleus/aberration tests", "assigned.category": "active"}
{"compound": "Cc1cc(N=Nc2ccccc2C)c(N)cc1N", "experimental.target": "CCRIS mutagenicity, Ames/micronucleus/aberration tests", "assigned.category": "active"}
{"compound": "CCc1ccnc2ccccc12", "experimental.target": "CCRIS mutagenicity, Ames/micronucleus/aberration tests", "assigned.category": "inactive"}
{"compound": "CC/C(=C(/c1ccc(OCCN(C)C)cc1)c1ccc(OP(=O)(O)O)cc1)c1ccc(C(C)C)cc1", "experimental.target": "CCRIS mutagenicity, Ames/micronucleus/aberration tests", "assigned.category": "inactive"}
{"compound": "CCN(C)N=O", "experimental.target": "CCRIS mutagenicity, Ames/micronucleus/aberration tests", "assigned.category": "inactive"}
{"compound": "Cc1cc2ccccc2c2cc([N+](=O)[O-])c3ccccc3c12", "experimental.target": "CCRIS mutagenicity, Ames/micronucleus/aberration tests", "assigned.category": "active"}
{"compound": "O=C(O)C(F)(F)C(F)(F)C(F)(F)C(F)(F)C(F)(F)C(F)(F)C(F)(F)C(F)(F)C(F)(F)F", "experimental.target": "CCRIS mutagenicity, Ames/micronucleus/aberration tests", "assigned.category": "inactive"}
{"compound": "CCN(CC)CCCC(C)Nc1ccnc2cc(Cl)ccc12 (configuration not stated)", "experimental.target": "CCRIS mutagenicity, Ames/micronucleus/aberration tests", "assigned.category": "inactive"}
{"compound": "O=CC(Cl)(Cl)Cl", "experimental.target": "CCRIS mutagenicity, Ames/micronucleus/aberration tests", "assigned.category": "active"}
{"compound": "O=[N+]([O-])c1ccc2ncccc2c1", "experimental.target": "CCRIS mutagenicity, Ames/micronucleus/aberration tests", "assigned.category": "active"}
